Attribution: patent US9115151B2

Record form. Attribute: IC50. Fill in for each entry.
measurement.target: PKCα (Homo sapiens, UniProt P17252)
Construct: His6; purchased Millipore; host or cells: baculovirus in Sf21 cells
assay.details: In vitro enzyme assay (time-resolved fluorescence kinase assay), PKCα, 100 μM ATP
Assay type: biochemical
study.conditions: 100 μM ATP; read-out: PKCα enzyme IC50
Counter-ions that a name gives are not always drawn.

Quick note, IC50 for C[C@@H]1C(=O)NN=C2COc3cc(-c4ccc(F)cc4F)c(NC4CNC4)cc3N21 landed at 1 to 10 µM

Quick note, IC50 for C[C@H](c1ccc2c(c1)N1C(=NNC(=O)[C@H]1C)CO2)C1CNC1 landed at 1 to 10 µM

Quick note, IC50 for CC1NCC1Nc1ccc2c(c1)N1C(=NNC(=O)C1C)CO2 (stereo not shown) landed at 1 to 10 µM

Quick note, IC50 for CC1C(=O)NN=C2COc3ccc(CC4CNC4)cc3N21 (stereo not shown) landed at 1 to 10 µM

Quick note, IC50 for COc1ccccc1-c1cc2c(cc1NC1CNC1)N1C(=NNC(=O)C1C)CO2 (racemic) landed at 1 to 10 µM

Quick note, IC50 for Cc1ccc(F)cc1-c1cc2c(cc1NC1CNC1)N1C(=NNC(=O)C1C)CO2 (racemic) landed at 1 to 10 µM

Quick note, IC50 for CC1CNCCC1c1ccc2c(c1)N1C(=NNC(=O)C1C)CO2 (stereo not shown) landed at 1 to 10 µM

Quick note, IC50 for CC(C)Cc1cc2c(cc1NC1CNC1)N1C(=NNC(=O)C1C)CO2 (stereo not shown) landed at 1 to 10 µM

Quick note, IC50 for C[C@@H]1C(=O)NN=C2COc3cc(-c4ccccc4F)c(N4CCN[C@@H](C)C4)cc3N21 landed at 0.25 to 1 µM

Quick note, IC50 for CC1C(=O)NN=C2COc3cc(-c4ccccc4)c(N(C)C4(C)CNC4)cc3N21 (stereo not shown) landed at < 0.25 µM

Quick note, IC50 for C[C@@H]1C(=O)NN=C2COc3cc(-c4ccccc4F)c(N4CCNCC4)cc3N21 landed at 1 to 10 µM

Quick note, IC50 for C[C@@H]1C(=O)NN=C2COc3cc(-c4c(F)cccc4F)c(C4CCNCC4)cc3N21 landed at 1 to 10 µM

Quick note, IC50 for CC1C(=O)NN=C2COc3cc(-c4ccccc4Cl)c(NC4CNC4)cc3N21 (racemic) landed at 1 to 10 µM

Quick note, IC50 for C[C@@H]1C(=O)NN=C2COc3cc4ccn([C@@]5(C)CCNC5)c4cc3N21 landed at < 0.25 µM

Quick note, IC50 for CC(C)N1CC(C)(Nc2cc3c(cc2C2CCOCC2)OCC2=NNC(=O)C(C)N23)C1 (stereo not shown) landed at 1 to 10 µM

Quick note, IC50 for C[C@@H]1C(=O)NN=C2COc3cc4c(cc3N21)N(C1(C)CNC1)CC4 [Example 159, hydrochloride] landed at 1 to 10 µM

Quick note, IC50 for CC1C(=O)NN=C2CSc3ccc(NC4CNC4)cc3N21 (stereo not shown) landed at 1 to 10 µM

Quick note, IC50 for C[C@@H]1C(=O)NN=C2COc3cc(-c4ccccc4F)c(N4[C@@H]5CC[C@H]4CN(C)C5)cc3N21 landed at 0.25 to 1 µM

Quick note, IC50 for C[C@@H]1C(=O)NN=C2COc3cc(-c4cccc(F)c4)c(NC4CNC4)cc3N21 landed at 1 to 10 µM

Quick note, IC50 for C[C@@H]1CN(C)CCN1c1cc2c(cc1-c1ccccc1F)OCC1=NNC(=O)[C@@H](C)N12 landed at 0.25 to 1 µM

Quick note, IC50 for CC1C(=O)NN=C2COc3cc(-c4cccc(OC(F)(F)F)c4)c(NC4CNC4)cc3N21 (racemic) landed at 1 to 10 µM

Quick note, IC50 for CC1C(=O)NN=C2COc3cc4ccn(C5CNC5)c4cc3N21 (stereo not shown) landed at 1 to 10 µM

Quick note, IC50 for CC1C(=O)NN=C2COc3cc(-c4ccccc4)c(OC4CNC4)cc3N21 (stereo not shown) landed at 1 to 10 µM

Quick note, IC50 for C[C@@H]1C(=O)NN=C2COc3cc(-c4ccccc4F)c(N(C)C4(C)CN(C5COC5)C4)cc3N21 landed at 0.25 to 1 µM

Quick note, IC50 for C[C@H]1C(=O)NN=C2COc3cc(-c4ccccc4F)c(N(C)[C@@]4(C)CCN(C)C4)cc3N21 (single isomer, unassigned) landed at 1 to 10 µM

Quick note, IC50 for Cc1cc2c(cc1OC1(C)CNC1)N1C(=NNC(=O)C1C)CO2 (stereo not shown) landed at 1 to 10 µM

Quick note, IC50 for C[C@@H]1C(=O)NN=C2COc3cc(-c4ccc(F)cc4F)c([C@@H]4CCN(C)C[C@@H]4C)cc3N21 landed at < 0.25 µM

Quick note, IC50 for C[C@@H]1C(=O)NN=C2COc3cc(-c4ccccc4CCO)c(N(C)C4(C)CN(C)C4)cc3N21 landed at 1 to 10 µM

Quick note, IC50 for C[C@@H]1C(=O)NN=C2COc3cc(-c4ccccc4F)c(N4C[C@H](C)N(C)C[C@@H]4C)cc3N21 landed at < 0.25 µM

Quick note, IC50 for C[C@@H]1CN(CCO)CC[C@@H]1c1cc2c(cc1-c1ccccc1F)OCC1=NNC(=O)[C@@H](C)N12 landed at 1 to 10 µM

Quick note, IC50 for C[C@@H]1C(=O)NN=C2COc3cc(-c4ccccc4F)c(N4[C@@H]5CC[C@H]4CNC5)cc3N21 landed at 0.25 to 1 µM

* * *

measurement.target: PKCα (Homo sapiens)
Construct: His6; purchased Millipore; host or cells: baculovirus in Sf21 cells
assay.details: In vitro enzyme assay (time-resolved fluorescence kinase assay), PKCα, 100 μM ATP
Format: biochemical
study.conditions: 100 μM ATP; read-out: PKCα enzyme IC50
Description: PKC kinase activity was assayed by time-resolved fluorescence in vitro kinase assay. Unless otherwise indicated, all reagents used for enzyme assays were obtained from Sigma. […]
Record form. Attribute: IC50. Fill in for each entry.

Quick note, IC50 for CC1C(=O)NN=C2COc3cc4c(cc3N21)N(C1(C)CNC1)CC4 (stereo not shown) [Example 158, 2,2,2-trifluoroacetate] landed at 1000 to 10000 nM

Quick note, IC50 for Cc1ccc(-c2cc3c(cc2NC2CNC2)N2C(=NNC(=O)C2C)CO3)cc1 (racemic) [Example 29] landed at 1000 to 10000 nM

Quick note, IC50 for C[C@@H]1C(=O)NN=C2COc3cc(-c4ccccc4F)c(N4CCN(C)C[C@@H]4C)cc3N21 [Example 231] landed at 250 to 1000 nM

Quick note, IC50 for CC1C(=O)NN=C2COc3ccc(C(C)C4(C)CNC4)cc3N21 (stereo not shown) [Example 129, trifluoroacetic acid] landed at 1000 to 10000 nM

Quick note, IC50 for C[C@@H]1C(=O)NN=C2COc3cc(-c4ccccc4F)c(N(C)C4(C)CN(C(=O)C(F)(F)F)C4)cc3N21 [Example 186] landed at 1000 to 10000 nM

Quick note, IC50 for C[C@@H]1C(=O)NN=C2COc3cc(C(F)(F)F)c([C@@H](C)C4(C)CNC4)cc3N21 (single isomer, unassigned) [Example 147-1, trifluoroacetic acid] landed at 250 to 1000 nM

Quick note, IC50 for CC1C(=O)NN=C2COc3cc(F)c(NC4(C)CNC4)cc3N21 (stereo not shown) [Example 84, trifluoroacetic acid] landed at 1000 to 10000 nM

Quick note, IC50 for COc1cccc(-c2cc3c(cc2NC2CNC2)N2C(=NNC(=O)C2C)CO3)c1 (racemic) [Example 20] landed at 1000 to 10000 nM

Quick note, IC50 for CCN(c1cc2c(cc1-c1ccccc1F)OCC1=NNC(=O)C(C)N12)C1(C)CN(C)C1 (stereo not shown) [Example 166] landed at < 250 nM

Quick note, IC50 for C[C@@H]1C(=O)NN=C2COc3cc(-c4ccccc4CO)c(N(C)C4(C)CN(C)C4)cc3N21 [Example 176] landed at 250 to 1000 nM

Quick note, IC50 for Cc1ccc(-c2cc3c(cc2[C@@H]2CCN(C)C[C@@H]2C)N2C(=NNC(=O)[C@H]2C)CO3)c(F)c1 [Example 200] landed at < 250 nM

Quick note, IC50 for CC(C)c1cc2c(cc1[C@@H](C)C1(C)CN(C)C1)N1C(=NNC(=O)[C@H]1C)CO2 [Example 134] landed at 1000 to 10000 nM

Quick note, IC50 for C[C@@H]1C(=O)NN=C2COc3ccc([C@@H]4CCN[C@H](Cc5ccccc5)C4)cc3N21 (single isomer, unassigned) [Example 109-2, trifluoroacetic acid] landed at 1000 to 10000 nM
